Tested on: Plasmodium falciparum
Assay: GSK_TCMDC: Inhibition of Plasmodium falciparum 3D7 in whole red blood cells, using parasite LDH activity as an index of growth. Test compounds present at 2uM
Type: functional
test readout: Inhibition (%)
Lab book: enter the figure in %, no units written.

Field: example entries. Status: answers known.
Oc1cc2c(cc1CN1CCN(Cc3ccccc3)CC1)CCC2: 98
Br.CC[C@H]1CN2CCc3cc(OC)c(OC)cc3[C@@H]2C[C@@H]1C[C@H]1NCCc2c1cc(OC)c(O)c2I: 100
O=C(NC1CCC(CN2CCC(c3c[nH]c4ccccc34)CC2)CC1)c1cc(-c2cccc(Cl)c2)n(-c2ccc(Cl)cc2Cl)n1 (stereo unspecified): 81
COc1ccc(CCNCc2ccc3c(C)cc(N)nc3c2)cc1: 100
O=S(=O)(NC1CCC(CN2CCC(c3c[nH]c4ccccc34)CC2)CC1)c1ccc(Cl)c(Cl)c1 (stereo unspecified): 97

Exercise: Tell me reported Inhibition for CCCCOC(C(=O)OCC1CCCN1C)(c1ccccc1)c1ccccc1 (stereo unspecified) , tested with Plasmodium falciparum.
Key: 100

Exercise: Tell me reported Inhibition for CC(C)N(C)C(=O)n1cnc(S(=O)(=O)C2CC3CCC2C3)n1.Cl (stereo unspecified) , tested with Plasmodium falciparum.
Key: 97

Exercise: Tell me reported Inhibition for O=C(NC1CCC(CN2CCC(c3c[nH]c4ccccc34)CC2)CC1)c1cc(-c2ccccc2Cl)oc1C(F)(F)F (stereo unspecified) , tested with Plasmodium falciparum.
Key: 99

Exercise: Tell me reported Inhibition for "Cc1cc(NC(=O)[C@H](CC(C)C)Nc2ccc(C#N)c3ccccc23)ccc1F.O=C(O)C(F)(F)F" , tested with Plasmodium falciparum.
Key: 95

Exercise: Tell me reported Inhibition for COc1ccc(OC)c(CNCC(O)c2cc(C(F)(F)F)cc(C(F)(F)F)c2)c1 (stereo unspecified) , tested with Plasmodium falciparum.
Key: 92

Exercise: Tell me reported Inhibition for "CN(C)CCc1c[nH]c2ccc(C(=O)Nc3ccc(-c4ccncc4)cc3)cc12.O=C(O)CCC(=O)O" , tested with Plasmodium falciparum.
Key: 99

Exercise: Tell me reported Inhibition for "Cc1ccc(C[C@@H](C)NC[C@H](O)c2cccc(C(F)(F)F)c2)cc1.O=C(O)/C=C/C(=O)O" , tested with Plasmodium falciparum.
Key: 100
